# METHOD_SUMMARY: Activation of BTN3A1 in human PBMC-derived Vgamma9Vdelta2 T cells assessed as induction of interleukin 2 stimulated cell proliferation by measuring increase in CD3 positive cells incubated for 3 days followed by 11 days incubation post compound wash out with subsequent stimulation with IL-2 every 3 days measured after 14 days by flow cytometr
pEC50: −log10 of the molar value.
Parameter threshold = 6. Response is T when pEC50 meets or exceeds it, else F.

Field: example entries. Status: answers known.
C/C(=C\CCP(=O)(COC(=O)C(C)(C)C)Oc1cccc2ccccc12)CO (configuration not stated) = T
C/C(=C\CCP(=O)(COC(=O)C(C)(C)C)OCOC(=O)C(C)(C)C)CO (configuration not stated) = T
COP(=O)(CC/C=C(\C)CO)Oc1cccc2ccccc12 (configuration not stated) = F
COP(=O)(CC/C=C(\C)CO)Oc1ccccc1 (configuration not stated) = F
C/C(=C\CCP(=O)(O)Oc1cccc2ccccc12)CO = T

Prompt line: Quick check, pEC50 >= 6? C/C(=C\CCP(=O)(COC(=O)C(C)(C)C)Oc1ccccc1)CO (configuration not stated)
Response line: T
